Origin of measurements: PubChem BioAssay AID652163

# target-or-system: Protein S100-A4 (Homo sapiens) (UniProt P26447)
# Sequence (P26447 whole entry, looked up): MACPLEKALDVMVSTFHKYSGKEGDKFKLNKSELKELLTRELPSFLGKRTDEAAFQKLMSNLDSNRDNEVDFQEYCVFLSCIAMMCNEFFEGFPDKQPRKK
# experimental-protocol: inhibitors of S100A4-myosin IIA peptide binding, primary screen, biochemical, fluorescence polarization, TAMRA-MyoIIA peptide (AID 652163)
# condition-context: at 10.7 µM, stronger effect = higher value
The campaign covered roughly 360,000 compounds. About 500 (0.14%) were called active. For the sample, actives were picked, then their nearest neighbours and some compounds at random.
readout-type: inhibition (%)
Entry rule: numbers only, all in %.

Consider the reported inhibition for these compounds:
N#C[C@@H]1[C@@H](c2ccc(-c3ccccc3)cc2)[C@@H](CO)N1C(=O)Cc1ccccc1 :: 9.02
COCC#Cc1cnc2c(c1)C(=O)N([C@@H](C)CO)C[C@@H](C)[C@H](CN(C)C(=O)Nc1ccccc1OC)O2 :: 5.05
CO[C@@H]1CN(C)C(=O)c2cc(NC(=O)c3ccccc3)ccc2OC[C@H](C)N(C(=O)CN(C)C)C[C@H]1C :: -0.975
CO[C@H]1CN(C)C(=O)c2cc(NS(=O)(=O)c3ccccc3)ccc2OC[C@H](C)NC[C@@H]1C :: -2.03
CN1CCN(C(=O)C[C@H]2CC[C@H]3[C@@H](COC[C@H](O)CN3C(=O)c3ccc(F)cc3)O2)CC1 :: -6.97
CN(C)C(=O)c1ccc(-c2ccc([C@@H]3[C@@H](CO)N4CCCCN(CC5CC5)C[C@H]34)cc2)cc1 :: 11.7

Next compound, please.
Need inhibition of C[C@H]1CN([C@@H](C)CO)C(=O)c2cc(-c3cccc(F)c3)cnc2O[C@@H]1CN(C)C(=O)c1ccccn1 , thanks.
1.67

----------
# target-or-system: Protein S100-A4 (Homo sapiens)
# experimental-protocol: inhibitors of S100A4-myosin IIA peptide binding, primary screen, biochemical, fluorescence polarization, TAMRA-MyoIIA peptide (AID 652163)
# condition-context: at 10.7 µM, stronger effect = higher value
Out of some 360,000 compounds screened, about 500 (0.14%) were called active. This is one part of a sample in which actives are shown more often than they occur.
readout-type: inhibition (%)
Unit % implied. Number only.

In the examples that follow, each entry is paired with its recorded inhibition.
C[C@H]1CCCCO[C@H](CN(C)S(C)(=O)=O)[C@@H](C)CN([C@@H](C)CO)C(=O)c2cc(NC(=O)C3CCCCC3)ccc2O1 :: 3.69
CO[C@H]1CN(C)C(=O)c2cc(NC(=O)C3CC3)ccc2OC[C@H](C)N(Cc2ccccc2)C[C@H]1C :: 3.65
C[C@@H]1CN([C@H](C)CO)C(=O)c2cc(NC(=O)CCCCCC(=O)Nc3ccccc3N)ccc2O[C@H]1CN(C)C(=O)Nc1ccc(C(F)(F)F)cc1 :: -13
C/C=C/c1ccc([C@H]2[C@@H](CO)N[C@@H]2CN(CC)C(=O)CN2CCOCC2)cc1 :: -4.11
CCCC(=O)N1CC2(C1)CN(C(=O)Nc1cccc(F)c1)[C@@H](CO)c1c2c2ccc(OC)cc2n1C :: 14.3

Request the reported inhibition associated with CS(=O)(=O)Nc1ccc2c(c1)[C@H]1C[C@H](CC(=O)NC3CCCC3)O[C@@H](CO)[C@H]1O2
5.62

Quick check: inhibition of CC(C)NC(=O)N(C)C[C@H]1Oc2ccc(NS(C)(=O)=O)cc2CC(=O)N([C@@H](C)CO)C[C@@H]1C ?
6.04

Tell me the measured inhibition of CCCNC(=O)N1CC(=O)N2[C@@H](CO)[C@H](c3ccc(-c4ccc(C)cc4)cc3)[C@@H]2C1 , please.
14

If you can, please state the reported inhibition value of Cc1ccccc1-c1ccc2c(c1)O[C@@H](CN(C)C(=O)Nc1ccc(F)cc1)[C@H](C)CN([C@@H](C)CO)S2(=O)=O .
-6.84

# query: inhibition of entry COc1ccccc1-c1cnc2c(c1)C(=O)N([C@H](C)CO)C[C@H](C)[C@@H](CN(C)CC1CCOCC1)O2
-8.2

Value lookup for inhibition; key = O=C(C[C@@H]1CC[C@@H]2[C@H](COC[C@@H](O)CN2S(=O)(=O)c2ccccc2)O1)NCC1CCCCC1
-4.89

Recorded inhibition of C[C@@H]1CCCCO[C@H](CN(C)C(=O)Nc2ccc3c(c2)OCO3)[C@H](C)CN([C@H](C)CO)C(=O)c2cc(NS(C)(=O)=O)ccc2O1 , please.
-0.157

If you can, please state the reported inhibition value of COc1cccc(C(=O)Nc2ccc3c(c2)OC[C@H](C)NC[C@H](C)[C@H](OC)CN(C)C3=O)c1 .
-5.1

Name the reported inhibition value associated with the compound O=C(Nc1cccc(C(F)(F)F)c1)c1ccc(N2CCNCC2)c([N+](=O)[O-])c1
-2.54
